B1: STEAP1 (parent)
chain: WMLTRKQFGLLSFFFAVLHAIYSL

# Variants of: B1
# test: protein stability index of a GFP-peptide fusion (GPS, HEK-293T) (PSI 1-6); higher = more stable;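 also: lentivirally expressed fusions sorted by FACS into six bins by GFP to DsRed ratio, PSI derived from sequencing read proportions per bin multiplied by bin number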
# condition.parameters: c terminus: a fixed tail appended
Each record here notes measured protein stability index.
measured.quantity: protein stability index

1) F15P :: 1.78
2) L3F :: 2.74
3) G9C :: 1.89
4) Y22I :: 1.1
5) L10R :: 4.36
6) M2N :: 2.18
7) L24V :: 2.27
8) L18P :: 3.09
9) T4E :: 1.1
10) L3P :: 2.27
11) L10P :: 1.33
12) W1M :: 1.88
13) F14H :: 2
14) Y22V :: 2.48
15) L18W :: 1.74
16) L11V :: 2.15
17) A16G :: 1.77
18) L10W :: 1.35
19) V17H :: 3.31

Sourced from the supplement of paper PMC10567573
